target_or_test_system: gp96 in the presence of herbimycin A (Mus musculus)
Construct: The mouse cDNA encoding mature gp96 (i.e., wherein the endoplasmic reticulum signal peptide has been removed) was incorporated into the pET 11 a expression vector; made in house; host or cells: Escherichia coli BL21 (pET11gp96)
measurement_notes: Affinity panning of phage display heptapeptide library on gp96 in the presence of herbimycin A
Assay type: binding
condition_set: Table XII; gp96 and herbimycin A; binding buffer without calcium: 20 mM HEPES pH 7.5, 100 mM KCl, 1 mM DTT, 1 mM MgAcetate, TWEEN 20; 42 phage-expressed peptides sequenced
metric_name: % actual (amino acid frequency in sequenced gp96-binding phage-expressed heptapeptides) (%)

For orientation, consider the following solved cases.
>  <molecular_string>
O=C(O)[C@@H]1CCCN1

>  <units_symbol>
%

>  <val>
10.88

$$$$
>  <molecular_string>
N[C@@H](Cc1ccccc1)C(=O)O

>  <units_symbol>
%

>  <val>
2.38

$$$$
>  <molecular_string>
C[C@H](N)C(=O)O

>  <units_symbol>
%

>  <val>
10.2

$$$$
>  <molecular_string>
N[C@@H](CC(=O)O)C(=O)O

>  <units_symbol>
%

>  <val>
2.04

$$$$

P: NCCCC[C@H](N)C(=O)O
Q: N[C@@H](CS)C(=O)O
// max by % actual (amino acid frequency in sequenced gp96-binding phage-expressed heptapeptides) over [ P , Q ] # respond with the chosen item's label
P
(P: 3.74%, Q: 0%)

I: CC(C)[C@H](N)C(=O)O
II: NC(=O)CC[C@H](N)C(=O)O
Lower value of % actual (amino acid frequency in sequenced gp96-binding phage-expressed heptapeptides) belongs to which: I or II ? # respond with the chosen item's label
II
(II: 2.0%, I: 4.08%)

I: NC(=O)C[C@H](N)C(=O)O
II: N[C@@H](Cc1c[nH]cn1)C(=O)O
III: CSCC[C@H](N)C(=O)O
IV: N[C@@H](Cc1c[nH]c2ccccc12)C(=O)O
V: CC(C)C[C@H](N)C(=O)O
Kindly order the items shown according to % actual (amino acid frequency in sequenced gp96-binding phage-expressed heptapeptides), from the highest value down. A ranking is expressed here by listing the labels in the requested order.
V, II, I, III, IV

----------
target_or_test_system: gp96 in the presence of herbimycin A (Mus musculus, UniProt P08113)
Construct: The mouse cDNA encoding mature gp96 (i.e., wherein the endoplasmic reticulum signal peptide has been removed) was incorporated into the pET 11 a expression vector; made in house; host or cells: Escherichia coli BL21 (pET11gp96)
Sequence (P08113 22-802): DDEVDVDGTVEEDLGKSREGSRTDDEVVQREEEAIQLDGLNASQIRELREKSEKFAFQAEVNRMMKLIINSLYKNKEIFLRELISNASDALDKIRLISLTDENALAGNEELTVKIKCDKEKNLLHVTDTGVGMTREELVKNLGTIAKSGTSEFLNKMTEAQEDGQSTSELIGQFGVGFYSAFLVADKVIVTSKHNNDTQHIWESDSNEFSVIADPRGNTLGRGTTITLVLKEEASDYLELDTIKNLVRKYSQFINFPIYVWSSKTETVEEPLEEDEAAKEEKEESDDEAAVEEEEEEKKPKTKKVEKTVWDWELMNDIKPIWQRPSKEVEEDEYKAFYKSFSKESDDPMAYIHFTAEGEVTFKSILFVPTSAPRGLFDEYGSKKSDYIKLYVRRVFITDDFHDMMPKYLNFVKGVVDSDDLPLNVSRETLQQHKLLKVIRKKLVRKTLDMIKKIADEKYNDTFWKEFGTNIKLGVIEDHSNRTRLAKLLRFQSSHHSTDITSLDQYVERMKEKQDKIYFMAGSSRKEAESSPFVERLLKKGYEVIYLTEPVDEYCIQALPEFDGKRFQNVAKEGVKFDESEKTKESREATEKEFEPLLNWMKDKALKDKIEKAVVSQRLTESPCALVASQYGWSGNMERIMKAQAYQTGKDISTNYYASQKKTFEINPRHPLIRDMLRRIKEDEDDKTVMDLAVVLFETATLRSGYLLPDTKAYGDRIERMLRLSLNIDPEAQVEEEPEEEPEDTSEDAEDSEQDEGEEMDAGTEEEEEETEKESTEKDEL
measurement_notes: Affinity panning of phage display heptapeptide library on gp96 in the presence of herbimycin A
Assay type: binding
condition_set: Table XIV; gp96 in the presence of herbimycin A; binding buffer with ATP: 20 mM HEPES pH 7.5, 100 mM KCl, 1 mM CaCl2, 1 mM MgAcetate, 1 mM ATP, TWEEN 20
metric_name: % actual (amino acid frequency in sequenced gp96-binding phage-expressed heptapeptides) (%)

For orientation, consider the following solved cases.
>  <molecular_string>
O=C(O)[C@@H]1CCCN1

>  <val>
14.2

$$$$
>  <molecular_string>
N=C(N)NCCC[C@H](N)C(=O)O

>  <val>
5.35

$$$$
>  <molecular_string>
N[C@@H](Cc1c[nH]c2ccccc12)C(=O)O

>  <val>
3.57

$$$$
>  <molecular_string>
NC(=O)CC[C@H](N)C(=O)O

>  <val>
1.78

$$$$
>  <molecular_string>
N[C@@H](CCC(=O)O)C(=O)O

>  <val>
0

$$$$
>  <molecular_string>
N[C@@H](Cc1c[nH]cn1)C(=O)O

>  <val>
10.7

$$$$
>  <molecular_string>
NCC(=O)O

>  <val>
1.78

$$$$
>  <molecular_string>
NC(=O)C[C@H](N)C(=O)O

>  <val>
5.3

$$$$

P: C[C@@H](O)[C@H](N)C(=O)O
Q: CSCC[C@H](N)C(=O)O
Lower value of % actual (amino acid frequency in sequenced gp96-binding phage-expressed heptapeptides) belongs to which: P or Q ? # respond with the chosen item's label
Q

----------
target_or_test_system: gp96 in the presence of herbimycin A (Mus musculus, UniProt P08113)
Construct: The mouse cDNA encoding mature gp96 (i.e., wherein the endoplasmic reticulum signal peptide has been removed) was incorporated into the pET 11 a expression vector; made in house; host or cells: Escherichia coli BL21 (pET11gp96)
measurement_notes: Affinity panning of phage display heptapeptide library on gp96 in the presence of herbimycin A
Type: binding
condition_set: Table XVI; binding buffer with AMP-PNP instead of ATP: 20 mM HEPES pH 7.5, 100 mM KCl, 1 mM CaCl2, 1 mM MgAcetate, 1 mM AMP-PNP, TWEEN 20
Protocol: Preparation of a gp96 expression vector. The mouse cDNA encoding mature gp96 (i.e., wherein the endoplasmic reticulum signal peptide has been removed) was incorporated into the pET 11 a expression vector (Novagen) as follows. Gp96 cDNA insert was prepared by polymerase chain reaction (PCR) of a pRc/CMV clone containing the cDNA using the following oligonucleotide primers: […]
metric_name: % actual (amino acid frequency in sequenced gp96-binding phage-expressed heptapeptides) (%)

1: NC(=O)CC[C@H](N)C(=O)O [Gln]
2: N[C@@H](Cc1ccccc1)C(=O)O [Phe]
3: O=C(O)[C@@H]1CCCN1 [Pro]
4: NCC(=O)O [Gly]
For the compounds shown above, give the order from largest % actual (amino acid frequency in sequenced gp96-binding phage-expressed heptapeptides) to smallest. A ranking is expressed here by listing the labels in the requested order.
3, 1, 2, 4
(3: 12.8%, 1: 5.7%, 2: 2.85%, 4: 1.4%)

a: NC(=O)C[C@H](N)C(=O)O [Asn]
b: NCCCC[C@H](N)C(=O)O [Lys]
// max by % actual (amino acid frequency in sequenced gp96-binding phage-expressed heptapeptides) over [ a , b ] # respond with the chosen item's label
a
(a: 5.7%, b: 2.85%)

----------
target_or_test_system: gp96 in the presence of herbimycin A (Mus musculus, UniProt P08113)
Construct: The mouse cDNA encoding mature gp96 (i.e., wherein the endoplasmic reticulum signal peptide has been removed) was incorporated into the pET 11 a expression vector; made in house; host or cells: Escherichia coli BL21 (pET11gp96)
measurement_notes: Affinity panning of phage display heptapeptide library on gp96 in the presence of herbimycin A
Format: binding
condition_set: Table XII; gp96 and herbimycin A; binding buffer without calcium: 20 mM HEPES pH 7.5, 100 mM KCl, 1 mM DTT, 1 mM MgAcetate, TWEEN 20; 42 phage-expressed peptides sequenced
metric_name: % actual (amino acid frequency in sequenced gp96-binding phage-expressed heptapeptides) (%)

>  <molecular_string>
N[C@@H](CO)C(=O)O

>  <val>
10.88

$$$$
>  <molecular_string>
N=C(N)NCCC[C@H](N)C(=O)O

>  <val>
2.72

$$$$
>  <molecular_string>
C[C@@H](O)[C@H](N)C(=O)O

>  <val>
13.95

$$$$
>  <molecular_string>
N[C@@H](Cc1ccc(O)cc1)C(=O)O

>  <val>
4.76

$$$$

P: NCC(=O)O
Q: N[C@@H](CCC(=O)O)C(=O)O
Lower value of % actual (amino acid frequency in sequenced gp96-binding phage-expressed heptapeptides) belongs to which: P or Q ? # respond with the chosen item's label
Q
(Q: 2.0%, P: 3.74%)

----------
target_or_test_system: gp96 in the presence of herbimycin A (Mus musculus)
Construct: The mouse cDNA encoding mature gp96 (i.e., wherein the endoplasmic reticulum signal peptide has been removed) was incorporated into the pET 11 a expression vector; made in house; host or cells: Escherichia coli BL21 (pET11gp96)
measurement_notes: Affinity panning of phage display heptapeptide library on gp96 in the presence of herbimycin A
Type: binding
condition_set: Table XIV; gp96 in the presence of herbimycin A; binding buffer with ATP: 20 mM HEPES pH 7.5, 100 mM KCl, 1 mM CaCl2, 1 mM MgAcetate, 1 mM ATP, TWEEN 20
Experimental: Preparation of a gp96 expression vector. The mouse cDNA encoding mature gp96 (i.e., wherein the endoplasmic reticulum signal peptide has been removed) was incorporated into the pET 11 a expression vector (Novagen) as follows. Gp96 cDNA insert was prepared by polymerase chain reaction (PCR) of a pRc/CMV clone containing the cDNA using the following oligonucleotide primers: […]
metric_name: % actual (amino acid frequency in sequenced gp96-binding phage-expressed heptapeptides) (%)

For orientation, consider the following solved cases.
>  <molecular_string>
N[C@@H](CS)C(=O)O

>  <val>
0

$$$$
>  <molecular_string>
C[C@H](N)C(=O)O

>  <val>
3.57

$$$$
>  <molecular_string>
CC(C)[C@H](N)C(=O)O

>  <val>
5.3

$$$$
>  <molecular_string>
N[C@@H](CC(=O)O)C(=O)O

>  <val>
0

$$$$
>  <molecular_string>
N[C@@H](CO)C(=O)O

>  <val>
16.0

$$$$

I: N[C@@H](Cc1ccccc1)C(=O)O
II: N[C@@H](Cc1ccc(O)cc1)C(=O)O
Lower value of % actual (amino acid frequency in sequenced gp96-binding phage-expressed heptapeptides) belongs to which: I or II ? # respond with the chosen item's label
I
(I: 0%, II: 7.1%)

A: NCCCC[C@H](N)C(=O)O
B: CC(C)C[C@H](N)C(=O)O
Lower value of % actual (amino acid frequency in sequenced gp96-binding phage-expressed heptapeptides) belongs to which: A or B ? # respond with the chosen item's label
A
